Listed here: items and their measured EC50 at 1 h.
assay: Cytotoxicity colorimetric assay, HepG2; format: cell-based, human; details: human, HepG2 cells, one hour in serum-free media
reported metric: EC50 at 1 h

[
  {
    "smiles data": "COc1cc(OCC(N)=O)c(C(=O)N[C@H]2CC[C@H](NC(=O)c3cc(C(=O)NCCN(C)C)c(OCCCCCN)cc3OCCCCCN)CC2)cc1C(=O)N[C@H]1CC[C@H](NC(=O)c2cc(C(=O)NCCN(C)C)c(OCCCCCN)cc2OCCCCCN)CC1",
    "result": "> 1000 µg/mL"
  },
  {
    "smiles data": "COc1ccc(NC(=O)[C@@H](CCCNC(=N)N)NC(=O)c2cc(NC(=O)[C@@H](CCCNC(=N)N)NC(=O)c3cc(NC(=O)[C@@H](CCCNC(=N)N)NC(=O)c4cc(NC(C)=O)ccc4OC)ccc3OC)ccc2OC)cc1C(N)=O",
    "result": "> 1000 µg/mL"
  },
  {
    "smiles data": "COc1cc(OC)c(C(=O)N[C@H]2CC[C@@H](NC(=O)c3cc(C(=O)N[C@H]4CC[C@@H](NC(=O)c5cc(C(=O)NCCCN)c(OC)cc5OC)CC4)c(OC)cc3OC)CC2)cc1C(=O)NCCCN",
    "result": "> 1000 µg/mL"
  },
  {
    "smiles data": "COc1ccc(NC(=O)[C@H](CCCCN)NC(=O)c2cc(NC(=O)[C@H](CCCCN)NC(=O)c3cc(NC(=O)[C@H](CCCCN)NC(=O)c4cc(NC(=O)[C@@H](N)CCCCN)ccc4OC)ccc3OC)ccc2OC)cc1C(=O)O",
    "result": "> 1000 µg/mL"
  }
]

----------
tested on: unfractionated heparin (UFH); assay: aPTT clotting assay, UFH 0.2 U/mL in plasma (Example 7); assay type: biochemical; details: UFH 0.2 U/mL in plasma
reported metric: UFH (aPTT) EC50 (µg/mL)

[
  {
    "smiles data": "COc1ccc(NC(=O)[C@H](CCCCN)NC(=O)c2cc(NC(=O)[C@@H](N)CCCCN)ccc2OC)cc1C(=O)N[C@@H](CCCCN)C(=O)Nc1ccc(OC)c(C(=O)N[C@@H](CCCCN)C(=O)Nc2ccc(OC)c(C(=O)N[C@H](C(=O)O)C(C)C)c2)c1",
    "target": "unfractionated heparin (UFH)",
    "reported metric": "UFH (aPTT) EC50",
    "number": 3.00
  },
  {
    "smiles data": "COc1ccc(NC(=O)[C@H](CCCCN)NC(=O)c2cc(NC(=O)[C@H](CCCCN)NC(=O)c3cc(NC(=O)[C@H](CCCCN)NC(=O)c4cc(NC(=O)[C@@H](N)CCCCN)ccc4OC)ccc3OC)ccc2OC)cc1C(=O)NCCCCCC(=O)O",
    "target": "unfractionated heparin (UFH)",
    "reported metric": "UFH (aPTT) EC50",
    "number": 2.96
  }
]

----------
Listed here: items and their measured EC50 at 1 h.
experiment: Cytotoxicity colorimetric assay, NIH/3T3; type: cell-based, mouse; conditions: mouse, NIH/3T3 cells, one hour in serum-free media
reported metric: EC50 at 1 h (µg/mL)

[
  {
    "smiles data": "COc1ccc(NC(=O)[C@H](CCCCN)NC(=O)c2cc(NC(=O)[C@H](CCCCN)NC(=O)c3cc(NC(=O)[C@H](CCCCN)NC(=O)c4cc(NC(=O)[C@H](CCCCN)NC(=O)c5c[nH]c6ccccc56)ccc4OC)ccc3OC)ccc2OCC(=O)O)cc1C(N)=O",
    "reported metric": "EC50 at 1 h",
    "endpoint unit": "µg/mL",
    "modifier sign": "=",
    "number": 150
  },
  {
    "smiles data": "COc1cc(OCC(N)=O)c(C(=O)N[C@H]2CC[C@H](NC(=O)c3cc(C(=O)NCCN(C)C)c(OCCCCCN)cc3OCCCCCN)CC2)cc1C(=O)N[C@H]1CC[C@H](NC(=O)c2cc(C(=O)NCCN(C)C)c(OCCCCCN)cc2OCCCCCN)CC1",
    "reported metric": "EC50 at 1 h",
    "endpoint unit": "µg/mL",
    "modifier sign": "=",
    "number": 650
  },
  {
    "smiles data": "COc1cc(OC)c(C(=O)N[C@H]2CC[C@H](NC(=O)c3cc(C(=O)N[C@H]4CC[C@H](NC(=O)c5cc(C(=O)NCCN)c(OC)cc5OC)CC4)c(OC)cc3OC)CC2)cc1C(=O)NCCN",
    "reported metric": "EC50 at 1 h",
    "endpoint unit": "µg/mL",
    "modifier sign": ">",
    "number": 1000
  },
  {
    "smiles data": "COc1cc(OC)c(C(=O)N[C@H]2CC[C@H](NC(=O)c3ccc(OCCCCCNC(=N)N)cc3OCCCCCNC(=N)N)CC2)cc1C(=O)N[C@H]1CC[C@H](NC(=O)c2ccc(OCCCCCNC(=N)N)cc2OCCCCCNC(=N)N)CC1",
    "reported metric": "EC50 at 1 h",
    "endpoint unit": "µg/mL",
    "modifier sign": "=",
    "number": 390
  },
  {
    "smiles data": "COc1cc(OC)c(C(=O)N[C@H]2CC[C@H](NC(=O)c3cc(C(=O)N[C@H]4CC[C@H](NC(=O)c5cc(C(=O)NCCN)c(OC)cc5OC)CC4)c(OCC(N)=O)cc3OC)CC2)cc1C(=O)NCCN",
    "reported metric": "EC50 at 1 h",
    "endpoint unit": "µg/mL",
    "modifier sign": "=",
    "number": 986
  },
  {
    "smiles data": "COc1ccc(NC(=O)[C@H](CCCCN)NC(=O)c2cc(NC(=O)[C@H](CCCCN)NC(=O)c3cc(NC(=O)[C@H](CCCCN)NC(=O)c4cc(NC(=O)[C@@H](N)CCCCN)ccc4OC)ccc3OC)ccc2OC)cc1C(=O)O",
    "reported metric": "EC50 at 1 h",
    "endpoint unit": "µg/mL",
    "modifier sign": ">",
    "number": 1000
  }
]
